# EXPERIMENTAL_TARGET: Tyrosine-protein phosphatase non-receptor type 11 (Homo sapiens)
# TEST_DETAILS: Inhibition of GST-tagged SHP2
ASSAY_READOUT: Activity

Below, each entry is followed by its recorded Activity result.
Exam item: Find the measured Activity of `Cc1cc(C)c2c(c1)[nH]c1nnc(SCC(=O)NCc3cccs3)nc12` and report it.
Marked response: Dose-dependent effect

Exam item: State its Activity: `NS(=O)(=O)c1ccc(CCNC(=O)c2ccc(Cn3c(=S)[nH]c4ccc(Br)cc4c3=O)cc2)cc1`
Marked response: Dose-dependent effect

Exam item: Using the record for CSc1ccc(C2C(C#N)=C(N)Oc3[nH]nc(-c4ccccc4Cl)c32)cc1 (centres undefined) , state its measured Activity.
Marked response: Dose-dependent effect

Exam item: Look up and state reported Activity for `CNC(=S)NNC(=O)CSCCS(=O)(=O)c1ccccc1`
Marked response: Dose-dependent effect

Exam item: Supply measured Activity of `O=C(CCCn1c(=O)c2cccn2c2cccnc21)NCc1ccccc1F` in your reply.
Marked response: Dose-dependent effect

Exam item: Specify reported Activity for the molecule shown: `CNC(=S)NNC(=O)c1csc(-c2cccs2)n1`
Marked response: Dose-dependent effect

Others:
Exam item: Provide Activity value for the following molecule: `NNc1ccc(S(=O)(=O)O)cc1`
Marked response: Dose-dependent effect

Exam item: Give the reported value of Activity for this record: `NC(N)=NN[C@@H]1O[C@H](CO)[C@@H](O)[C@H](O)[C@H]1O`
Marked response: Dose-dependent effect

Exam item: Give the measured Activity for `CCc1ccc(OCC(=O)Nc2ccc(S(N)(=O)=O)cc2)cc1`
Marked response: Dose-dependent effect

* * *

# EXPERIMENTAL_TARGET: Tyrosine-protein phosphatase non-receptor type 11 (Homo sapiens) (UniProt Q06124)
# Sequence (Q06124 whole entry, the tested form may be a part): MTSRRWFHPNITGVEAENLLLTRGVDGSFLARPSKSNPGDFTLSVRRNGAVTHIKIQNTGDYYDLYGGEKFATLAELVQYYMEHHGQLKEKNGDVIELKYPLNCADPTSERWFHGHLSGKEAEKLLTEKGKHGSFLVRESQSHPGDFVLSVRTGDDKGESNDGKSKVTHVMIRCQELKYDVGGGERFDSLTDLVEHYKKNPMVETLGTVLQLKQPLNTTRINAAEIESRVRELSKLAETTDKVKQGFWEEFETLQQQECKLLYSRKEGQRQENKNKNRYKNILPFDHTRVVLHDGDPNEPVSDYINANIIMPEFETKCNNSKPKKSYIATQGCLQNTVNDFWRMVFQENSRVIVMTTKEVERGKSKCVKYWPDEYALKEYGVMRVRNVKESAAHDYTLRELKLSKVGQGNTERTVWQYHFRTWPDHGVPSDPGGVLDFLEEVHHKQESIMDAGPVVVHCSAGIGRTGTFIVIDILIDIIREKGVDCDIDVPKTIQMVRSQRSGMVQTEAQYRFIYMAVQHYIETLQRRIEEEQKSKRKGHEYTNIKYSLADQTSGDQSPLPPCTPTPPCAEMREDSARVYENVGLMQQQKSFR
# TEST_DETAILS: Binding affinity to SHP2 PTP domain assessed as quenching of enzyme fluorescence by fluorescence titration assay
Calls of active or inactive are those of the source. The rule behind the calls is not given here.
ASSAY_READOUT: Activity

Some solved cases for reference:
Exam item: Provide Tyrosine-protein phosphatase non-receptor type 11 (Homo sapiens) (UniProt Q06124) Activity reading for `NS(=O)(=O)c1ccc(CCNC(=O)c2ccc(Cn3c(=S)[nH]c4ccc(Br)cc4c3=O)cc2)cc1` .
Marked response: Active

Exam item: Write down measured Activity (Tyrosine-protein phosphatase non-receptor type 11 (Homo sapiens) (UniProt Q06124)) for this compound. `Cc1cc(C)c2c(c1)[nH]c1nnc(SCC(=O)NCc3cccs3)nc12`
Marked response: Active

Exam item: Enter measured Activity, system Tyrosine-protein phosphatase non-receptor type 11 (Homo sapiens) (UniProt Q06124), for the compound shown: CSc1ccc(C2C(C#N)=C(N)Oc3[nH]nc(-c4ccccc4Cl)c32)cc1 (stereo unspecified)
Marked response: Active

Exam item: Find Activity for `CCc1ccc(OCC(=O)Nc2ccc(S(N)(=O)=O)cc2)cc1` on Tyrosine-protein phosphatase non-receptor type 11 (Homo sapiens) (UniProt Q06124) and write it down.
Marked response: inactive

Exam item: Give Activity for this entry on Tyrosine-protein phosphatase non-receptor type 11 (Homo sapiens) (UniProt Q06124): `CNC(=S)NNC(=O)CSCCS(=O)(=O)c1ccccc1`
Marked response: inactive

Further cases:
Exam item: Provide Tyrosine-protein phosphatase non-receptor type 11 (Homo sapiens) (UniProt Q06124) Activity reading for `NC(N)=NN[C@@H]1O[C@H](CO)[C@@H](O)[C@H](O)[C@H]1O` .
Marked response: inactive

* * *

# EXPERIMENTAL_TARGET: Tyrosine-protein phosphatase non-receptor type 11 (Homo sapiens) (UniProt Q06124)
# TEST_DETAILS: Inhibition of GST-tagged SHP2 at 100 uM
ASSAY_READOUT: inhibition (%)
# output: bare number, implied unit %

Check out these entries, answers already filled in.
Exam item: // output inhibition; input `NNc1ccc(S(=O)(=O)O)cc1` ; system Tyrosine-protein phosphatase non-receptor type 11 (Homo sapiens) (UniProt Q06124)
Marked response: 70

Exam item: Under Tyrosine-protein phosphatase non-receptor type 11 (Homo sapiens) (UniProt Q06124): report inhibition of `Cc1cc(C)c2c(c1)[nH]c1nnc(SCC(=O)NCc3cccs3)nc12` .
Marked response: 50

Exam item: Please report inhibition with Tyrosine-protein phosphatase non-receptor type 11 (Homo sapiens) (UniProt Q06124) for item `NS(=O)(=O)c1ccc(CCNC(=O)c2ccc(Cn3c(=S)[nH]c4ccc(Br)cc4c3=O)cc2)cc1` .
Marked response: 55

Next:
Exam item: Report inhibition from Tyrosine-protein phosphatase non-receptor type 11 (Homo sapiens) (UniProt Q06124) testing of `O=C(CCCn1c(=O)c2cccn2c2cccnc21)NCc1ccccc1F`
Marked response: 45

Exam item: Return reported inhibition for target or system Tyrosine-protein phosphatase non-receptor type 11 (Homo sapiens) (UniProt Q06124), item `CNC(=S)NNC(=O)c1csc(-c2cccs2)n1` .
Marked response: 40
